# test-protocol: Metabolic stability in human plasma assessed as compound remaining at 2 uM incubated upto 120 mins by LC-MS/MS analysis
# Assay type: ADME, cell-free
# condition-details: read-out: Stability
Consider the following molecules; for each one, report its remaining at 2 h, 2 µM.
# include the unit after the value

## Input Give a short answer stating reported remaining at 2 h, 2 µM for CCC(CC)O[C@@H]1C=C(C(=O)O)C[C@H](NCc2ccc(OCc3cccc(B(O)O)c3)cc2Cl)[C@H]1NC(C)=O .
## Output 104%

## Input Give a short answer stating reported remaining at 2 h, 2 µM for CCC(CC)O[C@@H]1C=C(C(=O)O)C[C@H](NCc2ccc(OCc3cccc(B(O)O)c3)cc2C)[C@H]1NC(C)=O .
## Output 99.3%

----------
Consider the following compounds; for each one, report its bioavailability.
# test-protocol: Oral bioavailability in Sprague-Dawley rat at 20 mg/kg measured for 15 to 1440 mins by LC-MS/MS analysis
# Type: ADME, organism-based
# condition-details: in vivo, time 15-1440 min
Reply numerically in %, unit not repeated.

## Input Give a short answer stating reported bioavailability for CCC(CC)O[C@@H]1C=C(C(=O)O)C[C@H](NCc2ccc(OCc3cccc(B(O)O)c3)cc2C)[C@H]1NC(C)=O .
## Output 0.15

## Input Give a short answer stating reported bioavailability for CCC(CC)O[C@@H]1C=C(C(=O)O)C[C@H](NCc2ccc(OCc3cccc(B(O)O)c3)cc2Cl)[C@H]1NC(C)=O .
## Output 0.65

----------
# test-protocol: Cmax in Sprague-Dawley rat at 2 mg/kg, iv measured for 15 to 1440 mins by LC-MS/MS analysis
# Format: ADME, organism-based
# condition-details: in vivo, time 15-1440 min
parameter-measured: Cmax (ng/mL)
Reply numerically in ng/mL, unit not repeated.

## Input Give a short answer stating reported Cmax for CCC(CC)O[C@@H]1C=C(C(=O)O)C[C@H](NCc2ccc(OCc3cccc(B(O)O)c3)cc2Cl)[C@H]1NC(C)=O .
## Output 2520

## Input Give a short answer stating reported Cmax for CCC(CC)O[C@@H]1C=C(C(=O)O)C[C@H](NCc2ccc(OCc3cccc(B(O)O)c3)cc2C)[C@H]1NC(C)=O .
## Output 4850

----------
Consider the following compounds; for each one, report its MRT inf.
# test-protocol: MRT (0 to infinity) in Sprague-Dawley rat at 2 mg/kg, iv measured for 15 to 1440 mins by LC-MS/MS analysis
# Format: ADME, organism-based
# condition-details: in vivo, time 15-1440 min
Reply numerically in min, unit not repeated.

## Input Give a short answer stating reported MRT inf for CCC(CC)O[C@@H]1C=C(C(=O)O)C[C@H](NCc2ccc(OCc3cccc(B(O)O)c3)cc2Cl)[C@H]1NC(C)=O .
## Output 10.2

## Input Give a short answer stating reported MRT inf for CCC(CC)O[C@@H]1C=C(C(=O)O)C[C@H](NCc2ccc(OCc3cccc(B(O)O)c3)cc2C)[C@H]1NC(C)=O .
## Output 7.8

----------
# test-protocol: Cytotoxicity against CEF cells incubated for 48 hrs by CCK8 assay
# Type: toxicity, cell-based, Gallus gallus
# condition-details: chicken
parameter-measured: CC50 at 48 h

## Input Give a short answer stating reported CC50 at 48 h for CCC(CC)O[C@@H]1C=C(C(=O)O)C[C@H](NCc2ccc(OCc3ccc(B(O)O)cc3)cc2Cl)[C@H]1NC(C)=O .
## Output > 200 µM

## Input Give a short answer stating reported CC50 at 48 h for CCC(CC)O[C@@H]1C=C(C(=O)O)C[C@H](NCc2ccc(OCc3cccc(B(O)O)c3)cc2Cl)[C@H]1NC(C)=O .
## Output > 200 µM

## Input Give a short answer stating reported CC50 at 48 h for CCC(CC)O[C@@H]1C=C(C(=O)O)C[C@H](NCc2ccc(OCc3ccc(B(O)O)cc3)cc2C)[C@H]1NC(C)=O .
## Output > 200 µM

## Input Give a short answer stating reported CC50 at 48 h for CCC(CC)O[C@@H]1C=C(C(=O)O)C[C@H](N)[C@H]1NC(C)=O [OSELTAMIVIR CARBOXYLATE] .
## Output > 200 µM

## Input Give a short answer stating reported CC50 at 48 h for CCC(CC)O[C@@H]1C=C(C(=O)O)C[C@H](NCc2ccc(OCc3ccc(B(O)O)cc3)cc2F)[C@H]1NC(C)=O .
## Output > 500 µM

## Input Give a short answer stating reported CC50 at 48 h for CCC(CC)O[C@@H]1C=C(C(=O)O)C[C@H](NCc2ccc(OCc3cccc(B(O)O)c3)cc2F)[C@H]1NC(C)=O .
## Output 170 µM

## Input Give a short answer stating reported CC50 at 48 h for CCC(CC)O[C@@H]1C=C(C(=O)O)C[C@H](NCc2ccc(OCc3cccc(B(O)O)c3)cc2C)[C@H]1NC(C)=O .
## Output > 200 µM

## Input Give a short answer stating reported CC50 at 48 h for CCC(CC)O[C@@H]1C=C(C(=O)O)C[C@H](NCc2c(C)cc(OCc3cccc(B(O)O)c3)cc2C)[C@H]1NC(C)=O .
## Output > 200 µM

----------
Consider the following compounds; for each one, report its CLint scaled at 2 h.
# test-protocol: in vitro
# condition-details: human, liver microsomes

## Input Give a short answer stating reported CLint scaled at 2 h for CCC(CC)O[C@@H]1C=C(C(=O)O)C[C@H](NCc2ccc(OCc3cccc(B(O)O)c3)cc2Cl)[C@H]1NC(C)=O .
## Output 12.2 mL/min/kg

## Input Give a short answer stating reported CLint scaled at 2 h for O=C(O)Cc1ccccc1Nc1c(Cl)cccc1Cl .
## Output 200 mL/min/kg

## Input Give a short answer stating reported CLint scaled at 2 h for CCC(CC)O[C@@H]1C=C(C(=O)O)C[C@H](NCc2ccc(OCc3cccc(B(O)O)c3)cc2C)[C@H]1NC(C)=O .
## Output 10.1 mL/min/kg

## Input Give a short answer stating reported CLint scaled at 2 h for CCC(CC)O[C@@H]1C=C(C(=O)O)C[C@H](N)[C@H]1NC(C)=O [OSELTAMIVIR CARBOXYLATE] .
## Output 11.8 mL/min/kg

----------
# test-protocol: MRT (0 to t) in Sprague-Dawley rat at 2 mg/kg, iv measured for 15 to 1440 mins by LC-MS/MS analysis
# Type: ADME, organism-based
# condition-details: in vivo, time 15-1440 min
parameter-measured: MRT last (min)
Reply numerically in min, unit not repeated.

## Input Give a short answer stating reported MRT last for CCC(CC)O[C@@H]1C=C(C(=O)O)C[C@H](NCc2ccc(OCc3cccc(B(O)O)c3)cc2Cl)[C@H]1NC(C)=O .
## Output 9.6

## Input Give a short answer stating reported MRT last for CCC(CC)O[C@@H]1C=C(C(=O)O)C[C@H](NCc2ccc(OCc3cccc(B(O)O)c3)cc2C)[C@H]1NC(C)=O .
## Output 7.8

----------
Consider the following compounds; for each one, report its Cmax.
# test-protocol: Cmax in Sprague-Dawley rat at 20 mg/kg, po measured for 15 to 1440 mins by LC-MS/MS analysis
# Format: ADME, organism-based
# condition-details: in vivo, time 15-1440 min
Reply numerically in ng/mL, unit not repeated.

## Input Give a short answer stating reported Cmax for CCC(CC)O[C@@H]1C=C(C(=O)O)C[C@H](NCc2ccc(OCc3cccc(B(O)O)c3)cc2C)[C@H]1NC(C)=O .
## Output 10.4

## Input Give a short answer stating reported Cmax for CCC(CC)O[C@@H]1C=C(C(=O)O)C[C@H](NCc2ccc(OCc3cccc(B(O)O)c3)cc2Cl)[C@H]1NC(C)=O .
## Output 57.5

----------
Consider the following compounds; for each one, report its MRT last.
# test-protocol: MRT (0 to t) in Sprague-Dawley rat at 20 mg/kg, po measured for 15 to 1440 mins by LC-MS/MS analysis
# Format: ADME, organism-based
# condition-details: in vivo, time 15-1440 min
# include the unit after the value

## Input Give a short answer stating reported MRT last for CCC(CC)O[C@@H]1C=C(C(=O)O)C[C@H](NCc2ccc(OCc3cccc(B(O)O)c3)cc2C)[C@H]1NC(C)=O .
## Output 48.6 min

## Input Give a short answer stating reported MRT last for CCC(CC)O[C@@H]1C=C(C(=O)O)C[C@H](NCc2ccc(OCc3cccc(B(O)O)c3)cc2Cl)[C@H]1NC(C)=O .
## Output 46.8 min

----------
# test-protocol: Half life in Sprague-Dawley rat at 2 mg/kg, iv measured for 15 to 1440 mins by LC-MS/MS analysis
# Format: ADME, organism-based
# condition-details: in vivo, time 15-1440 min
parameter-measured: half-life (min)
Reply numerically in min, unit not repeated.

## Input Give a short answer stating reported half-life for CCC(CC)O[C@@H]1C=C(C(=O)O)C[C@H](NCc2ccc(OCc3cccc(B(O)O)c3)cc2C)[C@H]1NC(C)=O .
## Output 15

## Input Give a short answer stating reported half-life for CCC(CC)O[C@@H]1C=C(C(=O)O)C[C@H](NCc2ccc(OCc3cccc(B(O)O)c3)cc2Cl)[C@H]1NC(C)=O .
## Output 16.8

Reference source for all entries: ChEMBL document CHEMBL6078687
